pIC50: −log10 of the molar value.
Study the reported pIC50 values for ROCK2 (Homo sapiens, UniProt O75116) given below; they originate from different publications.

COc1cccc(C(C(=O)NCC2CC2)N2CCN(c3ccc(-c4cn[nH]c4)cc3)C2=O)c1 (single isomer, unassigned)    6.70 to 7.70
O=C1N(c2ccc(-c3cn[nH]c3)cc2)CCC12Cc1ccc(F)cc1C2 (single isomer, unassigned)    7.52 to 8.52
O=C(Nc1cccc(-c2nnc(Nc3ccc4[nH]ncc4c3)o2)c1)c1cn[nH]c1    < 5.00
O=C1C(Nc2ccc3c(c2)OC(F)(F)O3)CCN1c1ccc(-c2n[nH]c(=O)c3ccccc23)cc1 (stereo not shown)    7.00 to 8.00
COc1ccc(NC(=O)c2cc3ccc(-c4nccc(Nc5ccc6[nH]ncc6c5)n4)cc3[nH]2)cn1    6.90

query: If you can, please state the reported pIC50 value of O=C(COc1cc(F)cc([C@@H](CO)NC(=O)N2CCc3cc(-c4cn[nH]c4)c(F)cc32)c1)N1CC(F)(F)C1 .
result: ≥ 7.30

query: Moving on to Cc1[nH]nc(C2CC2)c1NC1CCN(c2ccc(-c3n[nH]c(=O)c4ccccc34)cc2)C1=O (stereo not shown)
result: 7.00 to 8.00
